assay: chemical genetic growth profiling, strain panel (AID 1159580);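 note: tested at 20 µM; growth read once vehicle control cultures reached saturation at 30 °C; 1 = growth at the plate median or of vehicle wells; lower values mean less growth of the strain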; conditions: S. cerevisiae deletion strains, growth OD, locus YDR052C, strain DBF4, active compounds read low
Among all 5,500 compounds or so, about 2,000 (36%) were called active. About 18% were inconclusive and are not listed. The list shows a part of the results.
MEASURE: normalized growth
Number only, please.

Recorded results for 5 compounds are shown here.
Complete the entry with normalized growth for NC(=NC(=O)c1ccc(Cl)cc1)c1cccs1
0.96

Complete the entry with normalized growth for CN(C)/C=C/C(=O)c1ccc(C#Cc2ccccc2)cc1
0.974

Complete the entry with normalized growth for CCOC(=O)c1c(N=Cc2cc(Br)c(Br)cc2O)sc2c1CCCC2
0.971

Complete the entry with normalized growth for COc1cc(C(=O)Oc2c(Cl)cc(Cl)cc2C=Nc2ccc([N+](=O)[O-])cc2C#N)cc(OC)c1OC
0.989

Complete the entry with normalized growth for N=C(N)SCc1nc(-c2ccc(Cl)cc2)no1
0.99

---
Complete the entry with normalized growth for O=C(CCSc1cccs1)Nc1cccc(C(F)(F)F)c1
0.948

Complete the entry with normalized growth for Cc1cc(C(=O)O/N=C(/N)c2ccc([N+](=O)[O-])o2)no1
0.919

Complete the entry with normalized growth for OC(c1ccc(C(F)(F)F)cc1)c1cccc(C(F)(F)F)c1 (stereo unspecified)
0.977

Complete the entry with normalized growth for Cc1cc(C(=O)O/N=C(/N)c2ccc(C(C)(C)C)cc2)no1
0.986

Complete the entry with normalized growth for COc1cc(N=Cc2cc(Cl)cc(Cl)c2OS(=O)(=O)c2ccc(C)cc2)c(OC)cc1Cl
0.958

Complete the entry with normalized growth for N/C(=N/OC(=O)c1ccc(Cl)cc1)c1ccc(F)cc1F
0.913
